Taken from patent US9427415B2.

activation at 1000 µM values for the molecules below.
Biological target: human TRPA1 (Homo sapiens, UniProt O75762, K186N/R3C/R58T)
Construct: expressed in transfected cells; pcDNA3 control cells
Sequence (O75762 whole entry R3C/R58T/K186N): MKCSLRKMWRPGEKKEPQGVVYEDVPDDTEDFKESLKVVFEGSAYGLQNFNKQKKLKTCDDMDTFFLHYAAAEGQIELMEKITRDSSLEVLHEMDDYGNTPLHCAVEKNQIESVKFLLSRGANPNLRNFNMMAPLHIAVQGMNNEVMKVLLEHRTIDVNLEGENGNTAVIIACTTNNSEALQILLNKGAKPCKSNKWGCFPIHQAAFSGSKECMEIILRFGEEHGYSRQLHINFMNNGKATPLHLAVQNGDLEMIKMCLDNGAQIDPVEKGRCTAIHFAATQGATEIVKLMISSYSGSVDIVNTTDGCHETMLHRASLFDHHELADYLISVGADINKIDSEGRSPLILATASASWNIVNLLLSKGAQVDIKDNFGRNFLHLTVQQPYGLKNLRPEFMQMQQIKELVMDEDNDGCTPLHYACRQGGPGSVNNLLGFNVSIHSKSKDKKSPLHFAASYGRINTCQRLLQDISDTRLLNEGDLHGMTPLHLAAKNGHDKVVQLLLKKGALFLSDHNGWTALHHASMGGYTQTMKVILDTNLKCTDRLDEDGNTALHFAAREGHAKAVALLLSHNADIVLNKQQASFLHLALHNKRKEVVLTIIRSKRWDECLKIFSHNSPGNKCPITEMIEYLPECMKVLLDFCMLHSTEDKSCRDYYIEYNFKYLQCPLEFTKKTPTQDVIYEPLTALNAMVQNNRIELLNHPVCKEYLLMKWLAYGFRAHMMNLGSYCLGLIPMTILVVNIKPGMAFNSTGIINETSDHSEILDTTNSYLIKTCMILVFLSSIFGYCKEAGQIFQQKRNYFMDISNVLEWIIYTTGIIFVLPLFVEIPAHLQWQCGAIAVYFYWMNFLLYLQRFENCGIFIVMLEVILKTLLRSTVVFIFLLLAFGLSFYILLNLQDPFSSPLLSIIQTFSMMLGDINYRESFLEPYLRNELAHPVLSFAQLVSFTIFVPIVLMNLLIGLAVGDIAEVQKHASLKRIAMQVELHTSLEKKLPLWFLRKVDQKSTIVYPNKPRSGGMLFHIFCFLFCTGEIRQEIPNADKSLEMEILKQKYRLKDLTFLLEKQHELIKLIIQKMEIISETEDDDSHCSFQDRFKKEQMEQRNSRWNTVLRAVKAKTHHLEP
Experiment: Intracellular calcium (Fluo-4, FLIPR) activation of TRPA1 cells by GRAS compounds
Type: cell-based
Conditions: Table 1(c); 1 mM; relative to AITC 30 μM; read-out: A1 activation, % of agonist value
Value expressed in %; do not type the unit.

Guide cases for activation at 1000 µM, answers given:
CNc1ccccc1C(=O)OC [Methyl N-methylanthranilate] | 83.6
OCc1ccccc1 [Benzenemethanol] | 79.6
Cn1cccc1C=O [1-Methylpyrrole-2-carboxaldehyde] | 81.1
CCCCCC=CC=CCO [2,4-Decadienol] | 48.6
CCCCCC(=O)c1ccco1 [2-Hexanoylfuran] | 118
CC(C=O)c1ccccc1 (stereo not drawn) [2-Phenylpropionaldehyde] | 105
C=CCc1ccc(O)c(OC)c1 [Eugenol] | 79
CCCCCC/C=C/C=C/C=O [Trans,trans-2,4-undecadien-1-al] | 86.4

Alright, here's another molecule for you.
Request: Request the reported activation at 1000 µM associated with CCC(=O)OCc1ccccc1 [Benzyl propionate]
Result: 103

---

Molecular target: human TRPV1 (Homo sapiens, UniProt Q8NER1, M315I/T336M)
Construct: expressed in transfected cells; pcDNA3 control cells
Sequence (Q8NER1 whole entry M315I/T336M): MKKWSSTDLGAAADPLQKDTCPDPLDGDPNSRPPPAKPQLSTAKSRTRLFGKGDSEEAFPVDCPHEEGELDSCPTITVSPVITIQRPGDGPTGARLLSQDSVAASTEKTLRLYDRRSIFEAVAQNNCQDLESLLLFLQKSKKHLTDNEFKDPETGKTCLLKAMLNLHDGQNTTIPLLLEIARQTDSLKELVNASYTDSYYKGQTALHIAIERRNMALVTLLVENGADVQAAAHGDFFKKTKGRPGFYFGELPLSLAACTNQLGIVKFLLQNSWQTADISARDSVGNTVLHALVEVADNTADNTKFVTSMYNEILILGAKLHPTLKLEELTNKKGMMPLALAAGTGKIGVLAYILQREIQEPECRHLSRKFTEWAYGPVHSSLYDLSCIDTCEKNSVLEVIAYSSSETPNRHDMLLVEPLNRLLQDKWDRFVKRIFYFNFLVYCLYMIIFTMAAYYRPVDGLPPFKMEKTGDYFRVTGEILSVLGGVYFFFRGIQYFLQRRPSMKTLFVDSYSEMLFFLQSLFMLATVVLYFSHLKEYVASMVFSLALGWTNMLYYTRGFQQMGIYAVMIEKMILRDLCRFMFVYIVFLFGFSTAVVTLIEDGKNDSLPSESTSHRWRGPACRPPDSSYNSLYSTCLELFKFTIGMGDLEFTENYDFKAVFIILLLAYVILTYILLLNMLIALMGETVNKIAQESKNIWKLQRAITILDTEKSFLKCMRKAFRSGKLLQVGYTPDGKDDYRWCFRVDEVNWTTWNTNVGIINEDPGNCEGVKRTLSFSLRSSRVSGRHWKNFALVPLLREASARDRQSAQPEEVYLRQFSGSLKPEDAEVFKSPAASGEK
Assay: Intracellular calcium (Fluo-4, FLIPR) activation of TRPV1 cells by GRAS compounds;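 further: TRPV1-expressing cells, FLIPR fluorescence at 488/514 nm with baseline subtracted, sampled every 2 s for 10 min after adding compound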
Format: cell-based
Details: Table 1(a); 100 μM (*); relative to capsaicin 350 nM; read-out: V1 activation, % of agonist value
QUANTITY_KIND: activation at 100 µM (%)
Value expressed in %; do not type the unit.

c1ccc2scnc2c1 [Benzothiazole] | 33.4
O=Cc1ccc(O)cc1 [4-Hydroxybenzaldehyde] | 123

Request: Request the reported activation at 100 µM associated with O=C(CCc1ccc(O)cc1)c1c(O)cc(O)cc1O [Phloretin]
Result: 122

Request: Request the reported activation at 100 µM associated with Cc1nccnc1SCc1ccco1 [2-Furfurylthio-3-methylpyrazine]
Result: 31.3

---

Target: human TRPA1 (Homo sapiens, UniProt O75762, K186N/R3C/R58T)
Construct: expressed in transfected cells; pcDNA3 control cells
Test: Intracellular calcium (Fluo-4, FLIPR) activation of TRPA1 cells by GRAS compounds
Assay type: cell-based
Details: Table 1(c); 1 mM; relative to AITC 30 μM; read-out: A1 activation, % of agonist value
QUANTITY_KIND: activation at 1000 µM (%)
Value expressed in %; do not type the unit.

Guide cases for activation at 1000 µM, answers given:
CC(=O)OCCC(C)C [Isoamyl acetate] | 49.6
CC(C)=CCCC(C)=CC=O | 145
CC(=O)c1ccc(O)cc1 [p-Hydroxyacetophenone] | 52.8
O=Cc1ccc(O)cc1 [4-Hydroxybenzaldehyde] | 63
CCOC(=O)c1ccccc1 [Ethyl benzoate] | 70

Request: Request the reported activation at 1000 µM associated with `O=CC1=CCCCC1`
Result: 45.9

Request: Request the reported activation at 1000 µM associated with CC=Cc1ccc(OC(=O)Cc2ccccc2)c(OC)c1 [Isoeugenyl phenylacetate]
Result: 59.1

---

Molecular target: human TRPA1 (Homo sapiens, UniProt O75762, K186N/R3C/R58T)
Construct: expressed in transfected cells; pcDNA3 control cells
Assay: Intracellular calcium (Fluo-4, FLIPR) activation of TRPA1 cells by GRAS compounds;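 further: TRPA1-expressing cells, fluorescence read on a FLIPR Tetra (ex 488 nm, em 514 nm) every 2 s for 10 min after compound addition, baseline subtracted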
Type: cell-based
Conditions: Table 1(d); 1 mM; relative to AITC 30 μM; read-out: A1 activation, % of agonist value
activation at 1000 µM values for the molecules below.
Value expressed in %; do not type the unit.

Guide cases for activation at 1000 µM, answers given:
C=CC(C)(O)CCC=C(C)C (centres unmarked) | 52.6
CCOC(=O)CCc1ccccc1 [Ethyl hydrocinnamate] | 72.2
CC(C)OC(=O)Cc1ccccc1 [Isopropyl phenylacetate] | 80.2
CC=CC(C)=O | 64.2
CCCCCCC#CC(=O)OC [Methyl 2-nonynoate] | 101
CCOC(=O)c1ccccc1O [Ethyl salicylate] | 41
CC(C)C(=O)OCCOc1ccccc1 [Phenoxyethyl isobutyrate] | 81
CC(=O)OCc1ccco1 [Furfuryl acetate] | 120

Request: Request the reported activation at 1000 µM associated with CCC/C=C/COC(=O)CCC [trans-2-Hexenyl butyrate]
Result: 48.9

Request: Request the reported activation at 1000 µM associated with C=C(C)CCCC(C)CCO (centres unmarked)
Result: 93.7
